Published IC50 for UniProt P54750, assembled from different documents, is shown next.
Sequence (P54750 whole entry): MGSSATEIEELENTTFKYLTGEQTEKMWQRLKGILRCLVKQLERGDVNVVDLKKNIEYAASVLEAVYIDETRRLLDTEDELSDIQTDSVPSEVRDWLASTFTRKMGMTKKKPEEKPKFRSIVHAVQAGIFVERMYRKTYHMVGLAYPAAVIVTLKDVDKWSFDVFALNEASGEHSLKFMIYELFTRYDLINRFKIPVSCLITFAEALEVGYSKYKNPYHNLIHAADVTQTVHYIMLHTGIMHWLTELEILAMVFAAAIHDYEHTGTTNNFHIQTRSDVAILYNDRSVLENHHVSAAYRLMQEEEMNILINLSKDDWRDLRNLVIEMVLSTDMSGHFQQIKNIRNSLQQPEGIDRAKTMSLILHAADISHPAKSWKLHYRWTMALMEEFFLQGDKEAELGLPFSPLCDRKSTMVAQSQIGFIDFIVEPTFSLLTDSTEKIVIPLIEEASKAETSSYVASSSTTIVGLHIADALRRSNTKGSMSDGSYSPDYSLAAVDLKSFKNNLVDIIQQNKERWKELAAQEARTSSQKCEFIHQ

QUERY: Given the compound CC[C@@]12C=C(c3nnco3)n3c4c(c5ccccc53)CCN(CCC1)[C@H]42 , what is its reported IC50?
RESULT: > 100000 nM

QUERY: Given the compound CCOc1ncccc1-c1cc(NC)c2c(cnn2C(C)C)n1 , what is its reported IC50?
RESULT: 1030 nM

QUERY: Given the compound Cc1nn2c(C3CCOCC3)ncc2c(=O)n1Cc1cccc(F)c1 , what is its reported IC50?
RESULT: 127 nM

QUERY: Given the compound COc1ccc(Cn2c(C)cn3c(C4CCOCC4C)ncc3c2=O)cc1 (centres unmarked) , what is its reported IC50?
RESULT: 13 nM

QUERY: Given the compound CC(C)(C)n1ncc2c(=O)[nH]c(C3CN(c4ccc(CN5CCOCC5)cc4)C3)nc21 , what is its reported IC50?
RESULT: 1 to 100 nM

QUERY: Given the compound CC[C@@]12C=C(c3nc(C)c(C)o3)n3c4c(c5ccc(S(=O)(=O)NCCCOC)cc53)CCN(CCC1)[C@H]42 , what is its reported IC50?
RESULT: ≤ 1000 nM

QUERY: Given the compound Cc1ccccc1C(=O)N1CCCC(c2nc3c(c(C)nn3C3CCCCC3)c(=O)[nH]2)C1 (centres unmarked) , what is its reported IC50?
RESULT: 501 to 1000 nM

QUERY: Given the compound CCOc1ncccc1-c1cc(NCc2nc(C)no2)c2c(C(C)C)nc(C)n2n1 , what is its reported IC50?
RESULT: 21 nM

QUERY: Given the compound Cc1nn(-c2ccccc2)c2nc(C3CCCN(C(=O)c4ccc(N(C)C)cc4)C3)[nH]c(=O)c12 (centres unmarked) , what is its reported IC50?
RESULT: 501 to 1000 nM

QUERY: Given the compound CCCc1nn(C)c2c(=O)[nH]c(NCc3ccn(-c4ccccc4)n3)nc12 , what is its reported IC50?
RESULT: 101 to 500 nM

QUERY: Given the compound Cc1nn(C(C)(C)C)c2nc(C3CN(C(=O)NCc4ccccc4)C3)[nH]c(=O)c12 , what is its reported IC50?
RESULT: 1 to 100 nM

QUERY: Given the compound Cc1nn(C(C)C)c2c3cc(nc12)-c1cccnc1OCCCCn1nccc1CN3 , what is its reported IC50?
RESULT: 53 nM

QUERY: Given the compound CC[C@@]12C=C(c3nc4c(o3)CCCC4)n3c4c(c5ccccc53)CCN(CCC1)[C@H]42 , what is its reported IC50?
RESULT: ≤ 1000 nM

QUERY: Given the compound CCC(CC)CN(Cc1cccc(-n2cccn2)c1)c1nc2c(C(C)(C)C)nn(C)c2c(=O)[nH]1 , what is its reported IC50?
RESULT: < 100 nM

QUERY: Given the compound CCOc1ncccc1-c1cc(NCc2cnc(C)s2)c2c(C(C)C)nc(C)n2n1 , what is its reported IC50?
RESULT: 6.1 nM

QUERY: Given the compound CCOc1ncccc1-c1cc(NCc2nnc(C)o2)c2c(C(C)C)nn(C)c2n1 , what is its reported IC50?
RESULT: 110 nM

QUERY: Given the compound Cc1nn(C2CCCCC2)c2nc(C3CN(C(=O)N[C@@H](C)c4ccccc4)C3)[nH]c(=O)c12 , what is its reported IC50?
RESULT: 1 to 100 nM

QUERY: Given the compound COc1nccnc1-c1cc(NCc2ncn(C)n2)c2c(C(C)C)nn(C)c2n1 , what is its reported IC50?
RESULT: 91 nM

QUERY: Given the compound CCCc1nn(C)c2c(=O)[nH]c(N(C)Cc3ccc(F)cc3)nc12 , what is its reported IC50?
RESULT: < 100 nM

QUERY: Given the compound Cc1nn(C(C)(C)C)c2nc(C3CN(c4nnnn4-c4ccccc4)C3)[nH]c(=O)c12 , what is its reported IC50?
RESULT: 101 to 500 nM

QUERY: Given the compound Cc1nn(C2CCCCC2)c2nc(C3CCCN(C(=O)c4ccccc4F)C3)[nH]c(=O)c12 (centres unmarked) , what is its reported IC50?
RESULT: 501 to 1000 nM

QUERY: Given the compound CCCc1nn(C)c2c(=O)[nH]c(N(CC(C)C)CC(C)C)nc12 , what is its reported IC50?
RESULT: 101 to 500 nM

QUERY: Given the compound CC(C)c1nn(C)c2nc(-c3ccccc3)cc(NCc3ncn(C)n3)c12 , what is its reported IC50?
RESULT: 83 nM
